ASSAYED SYSTEM: the molecule itself
TEST PROTOCOL: ITC; dilution series, 25°C, iTC200; 100 µM NND injected (20 x 2 µL) into 50 mM Tris-HCl pH 8.0, 150 mM NaCl, 2 mM EDTA; dimer dissociation model; dimer to monomers
ASSAY ENDPOINT: Kd (µM)
Hi! Could you send only the number? It should be in µM, unit omitted.

So for Mto2 Near-N-terminal Domain (NND; Mto2 residues 78-153) (domain or fragment, S. pombe, UniProt Q9USP7 78-153, looked up, Mto2, S. pombe, residues 78-153 (NND); Weak homodimer that dissociates upon dilution; also called wild-type NND; source: E. coli BL21(DE3) pRIL, purified (glutathione-sepharose, TEV cleavage, SEC); not shown: GST, N-terminal, cleaved) PLYSPSWPSLADANVNSMKSNNAIQEHKAAKFVSEKSLEKVSTADNNLVLQELENLRERLNQVELQLSERPSSYLG , the logged Kd turned out to be 15
